Test system: Rattus norvegicus
EXPERIMENT SUMMARY: Antivasopressor activity in vivo in phenoxybenzamine pre-treated rats.
Assay type: functional
Starred links: 1 amine or outer side, 2 acyl side, 3 side chain; linkers in the order of their positions; H or OH if unused. Positions of bridges follow the written chain, without caps; N, C: chain ends. Non-standard residues stand in square brackets, D forms with d. Residues, ends and D or L forms follow the SMILES beside them. X1 = O=C(CC1(S[*:2])CCCCC1)[*:1]; Orn = NCCC[C@H](N)C(=O)O
MEASUREMENT LABEL: ED (nM/kg)
Write the answer as a number in nM/kg, unit excluded.

# example entries with known answers
>>> observed_result("CC[C@H](C)[C@@H]1NC(=O)[C@@H](Cc2ccccc2)NC(=O)CC2(CCCCC2)SSC[C@@H](C(=O)N2CCC[C@H]2C(=O)N[C@@H](CCCN=C(N)N)C(=O)NCC(N)=O)NC(=O)[C@H](CC(N)=O)NC(=O)[C@H](C(C)C)NC1=O")
17
>>> observed_result("COc1ccc(C[C@H]2NC(=O)CC3(CCCCC3)SSC[C@@H](C(=O)N3CCC[C@H]3C(=O)N[C@@H](CCCN=C(N)N)C(=O)NCC(N)=O)NC(=O)[C@H](CC(N)=O)NC(=O)[C@H](C(C)C)NC(=O)[C@H](Cc3ccccc3)NC2=O)cc1")
0.23
>>> observed_result("CC[C@H](C)[C@@H]1NC(=O)C(Cc2ccc(OC)cc2)NC(=O)CC2(CCCCC2)SSC[C@@H](C(=O)N2CCC[C@H]2C(=O)N[C@@H](CCCCN)C(=O)NCC(N)=O)NC(=O)[C@H](CC(N)=O)NC(=O)[C@H](CCC(N)=O)NC1=O (stereo in doubt)")
1.5
>>> observed_result("CC[C@H](C)[C@@H]1NC(=O)C(Cc2ccc(OC)cc2)NC(=O)CC(C)(C)SSC[C@@H](C(=O)N2CCC[C@H]2C(=O)N[C@@H](CCCN=C(N)N)C(=O)NCC(N)=O)NC(=O)[C@H](CC(N)=O)NC(=O)[C@H](C(C)C)NC1=O (stereo in doubt)")
0.23

Given CC[C@H](C)[C@@H]1NC(=O)[C@H](Cc2ccc(OC)cc2)NC(=O)CC2(CCCCC2)SSC[C@@H](C(=O)N2CCC[C@H]2C(=O)N[C@@H](CCCN)C(=O)NCC(N)=O)NC(=O)[C@H](CC(N)=O)NC(=O)[C@H]([C@@H](C)O)NC1=O (Y(Me)ITNCP[Orn]G-NH2; linker N-5 via X1) , state its recorded ED.
9.9

Query CC[C@H](C)[C@@H]1NC(=O)[C@H](Cc2ccc(OC)cc2)NC(=O)CC2(CCCCC2)SSC[C@@H](C(=O)N2CCC[C@H]2C(=O)N[C@@H](CCCN)C(=O)N[C@@H](C)C(N)=O)NC(=O)[C@H](CC(N)=O)NC(=O)[C@H]([C@@H](C)O)NC1=O next
8.1

Query CC[C@H](C)[C@@H]1NC(=O)C(Cc2ccc(OC)cc2)NC(=O)CC(C)(C)SSC[C@@H](C(=O)N2CCC[C@H]2C(=O)N[C@@H](CCCN=C(N)N)C(=O)NCC(N)=O)NC(=O)[C@H](CC(N)=O)NC(=O)[C@H](CCC(N)=O)NC1=O (stereo in doubt) next
0.25

Query CC[C@H](C)[C@@H]1NC(=O)[C@H](Cc2ccc(OC)cc2)NC(=O)CC2(CCCCC2)SSC[C@@H](C(=O)N2CCC[C@H]2C(=O)N[C@@H](CCCN)C(=O)O)NC(=O)[C@H](CC(N)=O)NC(=O)[C@H]([C@@H](C)O)NC1=O (Y(Me)ITNCP[Orn]-OH; linker N-5 via X1) next
23

Query CC[C@H](C)[C@@H]1NC(=O)[C@H](Cc2ccc(OC)cc2)NC(=O)CC2(CCCCC2)SSC[C@@H](C(=O)N2CCC[C@H]2C(=O)N[C@@H](CCCN)C(=O)N[C@@H](CC(C)C)C(N)=O)NC(=O)[C@H](CC(N)=O)NC(=O)[C@H]([C@@H](C)O)NC1=O (Y(Me)ITNCP[Orn]L-NH2; linker N-5 via X1) next
27

Query COc1ccc(C[C@H]2NC(=O)CC3(CCCCC3)SSC[C@@H](C(=O)N3CC=C[C@H]3C(=O)N[C@@H](CCCN=C(N)N)C(=O)NCC(N)=O)NC(=O)[C@H](CC(N)=O)NC(=O)[C@H](C(C)C)NC(=O)[C@H](Cc3ccccc3)NC2=O)cc1 next
0.55

# credit: ChEMBL document CHEMBL1124668
